Measured inhibition at 1 µM of individual entries
- TESTED TARGET: MAGL (Mus musculus, UniProt O35678)
- Construct: Proteomes (mouse brain membrane fraction or cell lysates); from tissue; host or cells: mouse brain membrane fraction (or cell lysates)
- Sequence (O35678 1-303): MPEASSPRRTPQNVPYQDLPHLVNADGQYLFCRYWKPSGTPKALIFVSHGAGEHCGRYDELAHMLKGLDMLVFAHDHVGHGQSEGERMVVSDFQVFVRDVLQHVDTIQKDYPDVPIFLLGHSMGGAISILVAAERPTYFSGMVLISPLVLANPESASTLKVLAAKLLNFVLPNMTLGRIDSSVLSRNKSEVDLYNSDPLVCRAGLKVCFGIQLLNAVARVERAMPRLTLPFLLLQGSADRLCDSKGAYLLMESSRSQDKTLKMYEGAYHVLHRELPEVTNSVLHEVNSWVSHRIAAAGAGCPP
- TEST NAME: In vitro competitive activity-based protein profiling (mouse), MAGL gel band
- Format: biochemical
- MEASUREMENT CONTEXT: read-out: MAGL % inh. 1 μM

Memo: CC(=O)Nc1ccn(C(=O)N2CCC3(CCCN3Cc3cc(OC4CCS(=O)(=O)CC4)cc(C(F)(F)F)c3)CC2)n1 , reported inhibition at 1 µM: ≥ 75%

The measured inhibition at 1 µM associated with CC(=O)NC1CCN(c2cc(C(F)(F)F)ccc2CN2CCN(C(=O)n3ccc(NS(C)(=O)=O)n3)CC2)CC1 reads ≥ 75%

Lab note: CC(=O)Nc1ccn(C(=O)N2CCN(Cc3ccc(C(F)(F)F)cc3N3CCCCC3)CC2)n1 gave inhibition at 1 µM of ≥ 75%

inhibition at 1 µM in this record for CS(=O)(=O)Nc1ccn(C(=O)N2CCN(Cc3ccc(C(F)(F)F)cc3N3CCC(C(=O)O)CC3)CC2)n1 : ≥ 75%

----------
- TESTED TARGET: FAAH (Mus musculus, UniProt O08914)
- Construct: Proteomes (mouse brain membrane fraction or cell lysates); from tissue; host or cells: mouse brain membrane fraction (or cell lysates)
- Sequence (O08914 whole entry): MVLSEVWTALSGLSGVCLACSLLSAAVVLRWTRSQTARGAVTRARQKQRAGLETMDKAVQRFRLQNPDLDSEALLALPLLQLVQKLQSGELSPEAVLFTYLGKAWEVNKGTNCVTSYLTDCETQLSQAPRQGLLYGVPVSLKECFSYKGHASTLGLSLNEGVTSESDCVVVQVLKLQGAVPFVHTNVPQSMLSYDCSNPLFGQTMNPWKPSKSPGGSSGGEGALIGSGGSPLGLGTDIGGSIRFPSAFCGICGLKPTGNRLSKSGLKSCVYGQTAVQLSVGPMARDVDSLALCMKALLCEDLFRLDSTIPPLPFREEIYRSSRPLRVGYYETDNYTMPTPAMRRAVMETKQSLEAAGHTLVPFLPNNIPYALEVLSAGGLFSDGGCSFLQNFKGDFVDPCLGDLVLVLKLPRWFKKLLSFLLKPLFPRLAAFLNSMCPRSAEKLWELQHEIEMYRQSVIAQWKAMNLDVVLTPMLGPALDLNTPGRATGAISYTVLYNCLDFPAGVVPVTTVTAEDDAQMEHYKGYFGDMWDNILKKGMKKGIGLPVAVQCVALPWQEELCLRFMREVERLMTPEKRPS
- TEST NAME: In vitro competitive activity-based protein profiling (mouse), FAAH gel band
- Format: biochemical
- MEASUREMENT CONTEXT: read-out: FAAH % inh. 1 μM
inhibition at 1 µM overview

inhibition at 1 µM reading for CC(=O)Nc1ccn(C(=O)N2CCC3(CCCN3Cc3ccc(Cl)cc3N3CC4CCC(C3)O4)CC2)n1 [Example 34] : 0 to 25%

----------
- TESTED TARGET: MAGL (Mus musculus, UniProt O35678)
- Construct: Proteomes (mouse brain membrane fraction or cell lysates); from tissue; host or cells: mouse brain membrane fraction (or cell lysates)
- TEST NAME: Mouse brain proteomes from inhibitor treated mice (oral gavage, sacrificed 4 h after administration)
- Format: in vivo
- MEASUREMENT CONTEXT: read-out: MAGL % inh. 5 mg/kg
# inhibition at 5 mg/kg values compiled below

# SMILES STRING, TESTED TARGET, inhibition at 5 mg/kg
records = [
    ("CC(=O)Nc1ccn(C(=O)N2CCC3(CCCN3Cc3ccc(Cl)cc3N3CCCC3)CC2)n1", "MAGL (Mus musculus, UniProt O35678)", "25 to 50%"),
    ("CC(=O)N1CC2CCC(C1)N2c1cc(C(F)(F)F)ccc1CN1CCN(C(=O)n2ccc(NS(C)(=O)=O)n2)CC1", "MAGL (Mus musculus, UniProt O35678)", "0 to 25%"),
    ("CC(=O)Nc1ccn(C(=O)N2CCC3(CCCN3Cc3ccc(N4CCOCC4)c(C(F)(F)F)c3)CC2)n1", "MAGL (Mus musculus, UniProt O35678)", "25 to 50%"),
    ("CC(=O)Nc1ccn(C(=O)N2CCN(Cc3ccc(Cl)cc3N3CCC4(CC3)CCN(S(C)(=O)=O)C4)CC2)n1", "MAGL (Mus musculus, UniProt O35678)", "0 to 25%"),
    ("CC(=O)Nc1ccn(C(=O)N2CCC3(CCCN3Cc3ccc(Cl)c(N4CCCC4)c3)CC2)n1", "MAGL (Mus musculus, UniProt O35678)", "0 to 25%"),
    ("CC(=O)Nc1ccn(C(=O)N2CCC3(CCCN3Cc3ccc(C)c(Cl)c3)CC2)n1", "MAGL (Mus musculus, UniProt O35678)", "≥ 75%"),
]

inhibition at 5 mg/kg measured on CC(=O)Nc1ccn(C(=O)N2CCC3(CCCN3Cc3ccc(C(F)(F)F)cc3N3CC4CCC(C3)O4)CC2)n1 = 0 to 25%

----------
# reported IC50; entries follow
- TESTED TARGET: MAGL (Mus musculus, UniProt O35678)
- Construct: Proteomes (mouse brain membrane fraction or cell lysates)
- Sequence (O35678 1-303): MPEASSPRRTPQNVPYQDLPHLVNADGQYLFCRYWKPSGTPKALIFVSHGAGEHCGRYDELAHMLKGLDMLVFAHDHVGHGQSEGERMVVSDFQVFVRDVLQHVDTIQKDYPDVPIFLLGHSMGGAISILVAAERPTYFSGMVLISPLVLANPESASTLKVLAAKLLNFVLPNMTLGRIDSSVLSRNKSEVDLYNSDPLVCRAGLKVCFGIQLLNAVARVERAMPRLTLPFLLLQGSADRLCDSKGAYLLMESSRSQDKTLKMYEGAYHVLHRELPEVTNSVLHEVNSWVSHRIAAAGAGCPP
- TEST NAME: In vitro competitive activity-based protein profiling (mouse), MAGL gel band
- MEASUREMENT CONTEXT: mouse

Please review the entries below; each comes with its answer.
# SMILES STRING, IC50
rows = [
    ("CC(=O)Nc1ccn(C(=O)N2CCC3(CCCN3Cc3ccc(Cl)c(C)c3)CC2)n1", "≤ 100 nM"),
    ("CC(=O)Nc1ccn(C(=O)N2CCN(Cc3ccc(Cl)cc3N3CCN(C4CC4)CC3)CC2)n1", "≤ 100 nM"),
    ("CS(=O)(=O)Nc1ccn(C(=O)N2CCC3(CCCN3Cc3ccc(C(F)(F)F)cc3N3CCCC3)CC2)n1", "≤ 100 nM"),
]

The compound listed as CC(=O)Nc1ccn(C(=O)N2CCC3(CCCN3Cc3ccc(Cl)cc3N3CCN(C(C)=O)CC3)CC2)n1 has a reported IC50 of 100 to 1000 nM

GET /value?item= CC(=O)Nc1ccn(C(=O)N2CCC3(CCCN3Cc3ccc(N4CCCC4)c(C(F)(F)F)c3)CC2)n1 &field=IC50 returns ≤ 100 nM

Sure, the documented IC50 for CC(=O)Nc1ccn(C(=O)N2CCN(Cc3cc(OCC(=O)N4CCCC4)cc(C(F)(F)F)c3)CC2)n1 is ≤ 100 nM

----------
Below, each of the compounds is paired with its reported inhibition at 5 mg/kg value.
- TESTED TARGET: MAGL (Mus musculus, UniProt O35678)
- Construct: Proteomes (mouse brain membrane fraction or cell lysates); from tissue; host or cells: mouse brain membrane fraction (or cell lysates)
- TEST NAME: Mouse brain proteomes from inhibitor treated mice (oral gavage, sacrificed 4 h after administration)
- Format: in vivo
- MEASUREMENT CONTEXT: read-out: MAGL % inh. 5 mg/kg

# COMPOUND, inhibition at 5 mg/kg
records = [
    ("CCN1CCN(c2cc(C(F)(F)F)ccc2CN2CCCC23CCN(C(=O)n2ccc(NC(C)=O)n2)CC3)CC1 [Example 31]", "25 to 50%"),
    ("CC(=O)Nc1ccn(C(=O)N2CCC3(CCCN3Cc3ccc(C(F)(F)F)c(C(N)=O)c3)CC2)n1 [Example 107]", "0 to 25%"),
    ("CC(=O)Nc1ccn(C(=O)N2CCN(Cc3cc(OCC(=O)N4CCCC4)cc(C(F)(F)F)c3)CC2)n1 [Example 80]", "0 to 25%"),
    ("CC(=O)Nc1ccn(C(=O)N2CCC3(CCCN3Cc3cc(OC4CCN(C5CC5)CC4)cc(C(F)(F)F)c3)CC2)n1 [Example 82]", "0 to 25%"),
    ("CS(=O)(=O)Nc1ccn(C(=O)N2CCN(Cc3ccc(C(F)(F)F)cc3N3CCCC3)CC2)n1 [Example 188]", "≥ 75%"),
    ("[2H]C([2H])([2H])C(=O)Nc1ccn(C(=O)N2CCC3(CCCN3Cc3ccc(Cl)c(C)c3)CC2)n1 [Example 286]", "≥ 75%"),
]

# inhibition at 5 mg/kg of CS(=O)(=O)Nc1ccn(C(=O)N2CCC3(CCCN3Cc3ccc(C(F)(F)F)cc3N3CCCC3)CC2)n1 [Example 125] = 0 to 25%

For reference, reported inhibition at 5 mg/kg for CS(=O)(=O)Nc1ccn(C(=O)N2CCN(Cc3cccc(Cl)c3N3CC[C@H](CF)C3)CC2)n1 [Example 121] stands at 50 to 75%

# compound CC(=O)Nc1ccn(C(=O)N2CCN(Cc3ccc(C(F)(F)F)cc3N3CCCC3)CC2)n1 [Example 1] ; its inhibition at 5 mg/kg = ≥ 75%

response.value for CC(=O)Nc1ccn(C(=O)N2CCC3(CCCN3Cc3ccc(C(N)=O)c(C(F)(F)F)c3)CC2)n1 [Example 109] (field: inhibition at 5 mg/kg) = 0 to 25%

Lab note: CCN1CCN(c2cc(C(F)(F)F)ccc2CN2CCN(C(=O)n3ccc(NC(C)=O)n3)CC2)CC1 [Example 48] gave inhibition at 5 mg/kg of 0 to 25%

The reported value for CC(=O)Nc1ccn(C(=O)N2CCN(Cc3ccc(C(F)(F)F)cc3OCC(=O)N3CCCC3)CC2)n1 [Example 79] in terms of inhibition at 5 mg/kg is 0 to 25%

Looking up CC(=O)Nc1ccn(C(=O)N2CCC3(CCCN3Cc3ccc(C(F)(F)F)c(N4CCOCC4)c3)CC2)n1 [Example 105] , I see its inhibition at 5 mg/kg listed as 25 to 50%

Summary for this compound, CC(=O)Nc1ccn(C(=O)N2CCN(Cc3ccc(Cl)cc3N3CCCC3)CC2)n1 [Example 5] : inhibition at 5 mg/kg is ≥ 75%

Memo: CS(=O)(=O)Nc1ccn(C(=O)N2CCN(Cc3ccc(C(F)(F)F)cc3N3CCC3)CC2)n1 [Example 175] , reported inhibition at 5 mg/kg: ≥ 75%
